# System: Liver
# assay_procedure: Drug concentration in rat liver assessed as nucleoside triphosphate level at […], sc after 6 hrs
# Assay type: ADME, organism-based
# conditions_used: in vivo, read-out: Drug uptake
measurement_kind: concentration (µM)

1 = CCCC(CCC)COC(=O)[C@H](C)NP(=O)(O)OC[C@H]1O[C@@H](n2ccc(N)nc2=O)[C@](C)(O)[C@@H]1O
2 = CCCC(CCC)C(=O)OCCNP(=O)(O)OC[C@H]1O[C@@H](n2ccc(N)nc2=O)[C@](C)(O)[C@@H]1O
Short answer wanted: higher concentration, 1 or 2 ? Your answer should be the label of the entry you select.
2

* * *

# maps each entry to its CC50
# assay_procedure: Cytotoxicity against human HBI10A cells

Field: example entries. Status: answers known.
CCOC(=O)[C@H](C)NP(=O)(OC[C@H]1O[C@@H](n2ccc(N)nc2=O)[C@](C)(O)[C@@H]1O)Oc1ccccc1C (stereo partly drawn)	9 µM
COC(=O)[C@H](C)NP(=O)(OC[C@H]1O[C@@H](n2ccc(N)nc2=O)[C@](C)(O)[C@@H]1O)Oc1ccc(OC)cc1 (mixture of isomers)	> 50 µM
CCOC(=O)[C@H](CC(C)C)NP(=O)(OC[C@H]1O[C@@H](n2ccc(N)nc2=O)[C@](C)(O)[C@@H]1O)Oc1ccc(Cl)cc1 (mixture of isomers)	> 50 µM
CCCCOC(=O)[C@H](C)NP(=O)(OC[C@H]1O[C@@H](n2ccc(N)nc2=O)[C@](C)(O)[C@@H]1O)Oc1ccc(Cl)c2ccccc12 (mixture of isomers)	> 20 µM
CCOC(=O)[C@H](C)NP(=O)(OC[C@H]1O[C@@H](n2ccc(N)nc2=O)[C@](C)(O)[C@@H]1O)Oc1ccc(C[C@H](N)C(=O)OC)cc1 (stereo partly drawn)	> 20 µM
COCCCOC(=O)[C@H](C)NP(=O)(OC[C@H]1O[C@@H](n2ccc(N)nc2=O)[C@](C)(O)[C@@H]1O)Oc1ccccc1 (stereo partly drawn)	> 20 µM
CCOC(=O)[C@H](C)NP(=O)(OCc1ccccc1)OC[C@H]1O[C@@H](n2ccc(N)nc2=O)[C@](C)(O)[C@@H]1O (stereo partly drawn)	> 20 µM
COC(=O)[C@H](Cc1ccccc1)NP(=O)(OC[C@H]1O[C@@H](n2ccc(N)nc2=O)[C@](C)(O)[C@@H]1O)Oc1ccc(Cl)cc1 (mixture of isomers)	> 20 µM
CCOC(=O)[C@H](C)NP(=O)(OC[C@H]1O[C@@H](n2ccc(N)nc2=O)[C@](C)(O)[C@@H]1O)Oc1ccccc1C(=O)OC (mixture of isomers)	> 50 µM
CCOC(=O)[C@H](C)NP(=O)(OC[C@H]1O[C@@H](n2ccc(N)nc2=O)[C@](C)(O)[C@@H]1O)Oc1cccc2ccccc12 (stereo partly drawn)	15 µM

CC50 reported for this compound CCCOC(=O)[C@H](C)NP(=O)(OC[C@H]1O[C@@H](n2ccc(N)nc2=O)[C@](C)(O)[C@@H]1O)Oc1ccccc1 (stereo partly drawn) : > 20 µM

CC50 reported for this compound COC(=O)CCNP(=O)(OC[C@H]1O[C@@H](n2ccc(N)nc2=O)[C@](C)(O)[C@@H]1O)Oc1ccc(Cl)cc1 (mixture of isomers) : > 20 µM

CC50 reported for this compound COC(=O)[C@H](C)NP(=O)(OC[C@H]1O[C@@H](n2ccc(N)nc2=O)[C@](C)(O)[C@@H]1O)Oc1ccc(C(F)(F)F)cc1 (stereo partly drawn) : > 50 µM
